// CC50 at 18 h lookup, one value per entry
experiment: Cell viability by CCK-8, THP-1 cells; assay type: cell-based; conditions: human, PMA-differentiated THP-1 cells; concentration causing 50% cytotoxicity against THP-1 cells

Here is how some compounds turned out for CC50 at 18 h.
Query :: Which measured CC50 at 18 h value corresponds to "CC(=O)O[C@@H]1[C@H](O)[C@H]2C(C)(C)C(=O)C=C[C@]2(C)[C@H]2CC[C@]3(C)C(=CC[C@H]3c3ccoc3)[C@]12C" ?
Result :: 107 µM

Query :: Which measured CC50 at 18 h value corresponds to "C[C@]12C3=CC[C@@H](c4ccoc4)[C@]3(C)CC[C@@H]1[C@@]1(C)C(=O)C=C[C@@]3(C)CO[C@@H]([C@H]2O)[C@H]13" ?
Result :: 36.9 µM

Query :: Which measured CC50 at 18 h value corresponds to "CC(=O)O[C@H]1[C@@H](OC(C)=O)[C@]2(C)[C@H](CC[C@@]3(C)[C@H](c4ccoc4)C[C@H]4O[C@@]423)[C@@]2(C)C=CC(=O)C(C)(C)[C@H]12" ?
Result :: 38 µM

Query :: Which measured CC50 at 18 h value corresponds to CC1(C)C(=O)C=C[C@]2(C)[C@H]3CC[C@]4(C)C(=CC[C@H]4C4CCOC4=O)[C@]3(C)[C@H](O)C[C@@H]12 (some centres unmarked) ?
Result :: 110 µM

# input for lookup
Query :: Which measured CC50 at 18 h value corresponds to "CC(=O)O[C@H]1[C@@H](O)[C@@]2(C)C3=CC[C@@H](c4ccoc4)[C@]3(C)CC[C@@H]2[C@@]2(C)C=CC(=O)C(C)(C)[C@H]12" ?
Result :: 20.3 µM
